PET hydrolysis values by entry
# procedure-details: PET hydrolysis, aromatic products released after 48 h (umol product/mg enzyme); higher = more PET depolymerization activity
# run-parameters: substrate: aFilm; 60 °C; pH 4.5

Exercise: Please give the measured PET hydrolysis for this sequence: ADNPYQRGPDPTPASIAADHGPFATAQTTIPKGNGLGGGIVYYPTDTSQGTFGAIAIAPGYGTEWRWYGWLGPRLASFGFVVVGIETNSLSDYADARADQLLAALDWLVTSSPVRDRVDRTRLAVGGHSMGGGGALVAATRRPSLRSAVGMAPYVPDGILRGTSVPTILFGGQADTTVTPAYLASAYATIPATVPRAYPEIAGEGHGFAAGGGGGNSGAFARVMMVWLKVFVDADTRYPPFLCPTLSNTSGISKYQASCPLGPGGTIPPPDTSRLANANAGRCLDASGAGTANGTKVILWTCNHGANQQWNRT [ESM139]
Solution: < 3

# context switch: different sequence, same PET hydrolysis
Exercise: Entry under review: MLTITVATGSASAADNPYQRGPDPTRTSVTAVNGPFANTSVSVPTGYGFNGGRIYYPTDTSQGTFGAIAISPGYTALFSAELAWMGPWLASHGFVVIGIETNSRNDFDTARGTQLLAALDYLTQQSPVRDRVDPNRLAVAGHSMGGGGALSAATRRSSLKAVVGIAPYSPSSNLANDRVPTMIFAGQADTVVTPSYATGLYNSLPTTTESAYLEVAGADHGFMVGRSNPVMVRTMLPFVKMFIDNDARYSQFLCPLLDSSGVVTYRSTCPLLPSTPPTSTPTPTDPPTPTPTPTVPPGSASEIVGTQSSRCIDVPNASRNNGTRVQLYDCNKQTNQA [ESM121] . Reported PET hydrolysis?
Solution: < 3

---

The reader will find reported PET hydrolysis values listed item by item below.
# procedure-details: PET hydrolysis, aromatic products released after 48 h (umol product/mg enzyme); higher = more PET depolymerization activity
# run-parameters: substrate: cryPow; 60 °C; pH 8.5

Exercise: For the sequence shown here, ATTAAAPAAAVRADSPYQRGPAPTEASVTAARGPFAIAQVTVPAGSGTGFNKGTIYYPTDTGQGTFGGVAVMPGFTSPQSVIQWLGPRLASQGFLVFTLDSLSLVDFPTARSQQLLAALDYLATRSTVRTRLDPNRLAVMGHSMGGGASLWAAQNRPSLKASVPLAPWETDTTWQGVRVPTMIIGGQADTVAPPATMAIPDYTSMTSAPEKAYLELRNGGHGAPATESPTVAKYALSWLKRFVDLDTRYDQFLCPAPAPTTAISQYRDTCPNG [DP058] , give the reported PET hydrolysis.
Solution: < 3

Consider now this further sequence.
Exercise: Param item = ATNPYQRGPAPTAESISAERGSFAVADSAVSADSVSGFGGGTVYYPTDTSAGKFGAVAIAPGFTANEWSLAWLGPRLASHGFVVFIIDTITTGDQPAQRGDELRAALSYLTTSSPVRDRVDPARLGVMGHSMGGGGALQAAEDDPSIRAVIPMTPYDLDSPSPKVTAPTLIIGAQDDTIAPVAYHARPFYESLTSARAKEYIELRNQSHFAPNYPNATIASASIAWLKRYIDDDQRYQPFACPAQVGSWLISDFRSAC [DP034] ; retrieve measured PET hydrolysis.
Solution: < 3

---

PET hydrolysis for assorted sequences
# procedure-details: PET hydrolysis, aromatic products released after 48 h (umol product/mg enzyme); higher = more PET depolymerization activity
# run-parameters: substrate: cryPow; 40 °C; pH 7.5

Exercise: Look up PET hydrolysis: ADNPYQRGPDPTRTSVAAVNGPFANTSVSVPTGYGFNGGRIYYPTDTSQGTFGAIAISPGYTALFSAELAWMGPWLASHGFVVIGIETNSRNDFDTARGTQLLAALDYLTQQSPVRDRVDPNRLAVSGHSMGGGGALSAAIRRSSLKAVVGIAPYSPSSNLANDRVPTMIFSGQADTVVTPSYATGLYNSLPATTESVYLEVAGADHGFMVGRSNPVMIRTMLPFVKMFIDNDTRYSQFLCPLLDSSGVVTYRSTCPLLPPAPTTPPPTGTPTPTPSSNPTTPPTTPPSTPTA [ESM061]
Solution: < 3

With those in mind, consider the next sequence.
Exercise: Endpoint output: PET hydrolysis of AQENPYERGPAPTAQNITEDGPFAYATATVPAQSGFAGGAIYYPTDTSQGTFGAVAAVPGFLTPVDDVAWMGPRLASHGFVVFTIEPNSRFEFPSGRAAALKAGLTYLTQSSAVRDRVDPTRLAVAGHSMGGGAALEAALKDPNLKAAVALQPWHTGVNFSTVNVPSMIVGAENDPIASPASHAEPFYEQIPAASEKAYLNLAGVGHEVGGVVTNDTQSSMMLTWLKRYVDNDTRYEPFMCPGPSGSSVLEYRGTCPG [TEP170] . Value?
Solution: < 3
